Measured values drawn from PubChem BioAssay (NCI) for this set.

# Test system: SK-MEL-5 melanoma
# test-summary: NCI tumour cell line growth inhibition, 48 h
value-type: TGI

Log: SK-MEL-5 melanoma, molecule CN(/N=C(\C(=O)O)c1ccccc1)C1=NCCCN1 , TGI = > 100 µM

Entry Cc1c(C#N)c(=O)[nH]c(=O)n1CCN1CCN(C(=O)NCCCCCCNC(=O)N2CCN(CCn3c(C)c(C#N)c(=O)[nH]c3=O)CC2)CC1 under SK-MEL-5 melanoma had TGI of > 100 µM

I looked up N#C/C(=C\c1c(-c2ccccc2)[nH]c2ccccc12)S(=O)(=O)c1ccccc1 and its TGI for SK-MEL-5 melanoma was 11.5 µM

Measured on SK-MEL-5 melanoma, NC(N)=N/N=C/c1c(-c2ccccc2)nc2n1ccc1nc(-c3ccccc3)c(/C=N/N=C(N)N)n12 has a documented TGI of > 100 µM

Reported SK-MEL-5 melanoma TGI for item CCCn1c(C)nc2c1C(=O)c1ccccc1C2=O was 27.2 µM

Tested on SK-MEL-5 melanoma, the item C1=NCCNCCN=Cc2ccc(cc2)OCc2cccc(n2)COc2ccc1cc2 showed TGI equal to > 100 µM

The molecule Cc1ccc(N2C(=O)C3c4[nH]c5ccccc5c4C4CCC(C(C)(C)C)CC4C3C2=O)cc1 (stereo not given) , when measured on SK-MEL-5 melanoma, yielded TGI of 36.4 µM

TGI value, target or system SK-MEL-5 melanoma, for Nn1c(-c2ccccc2Cl)nc2ccccc2c1=O : > 100 µM

The recorded TGI with SK-MEL-5 melanoma for O=[N+]([O-])c1cccc(-c2nc3sccn3c2-c2ccnc(NCCCNS(=O)(=O)c3cccc(F)c3)n2)c1 was 2.1 µM

Considering C/C(=N\Nc1ccc2ccccc2n1)c1ccccn1 , its TGI with SK-MEL-5 melanoma was recorded as 2.24 µM

Case COC(=O)C1C(OC(=O)c2ccccc2)CC2CCC1N2C(N)=O (stereo not given) , SK-MEL-5 melanoma, TGI recorded as > 100 µM

The value of TGI recorded for Cc1ccc(-c2cc(-c3ccc(C)cc3)nc(NCCNc3ccnc4cc(Cl)ccc34)n2)cc1 when tested on SK-MEL-5 melanoma reads 3.44 µM

Response field TGI (SK-MEL-5 melanoma) for item CN(CCO)c1nc2c(c(=O)[nH]1)CCC2 : > 100 µM

TGI value, target or system SK-MEL-5 melanoma, for COc1ccc(C2CC(c3cc(OC)c(OC)c(OC)c3)=NN2C(C)=O)cc1OCC(=O)Nc1nc2ccc(C(F)(F)F)cc2s1 (stereo not given) : > 100 µM

Item: COc1cc2c(cc1OC(=O)CC(C)O)C1C(OC2=O)C(OC(C)=O)C=C2CCN(C)[C@H]21 (stereo not given in full) | System: SK-MEL-5 melanoma | TGI: > 100 µM

Reported TGI (SK-MEL-5 melanoma) for entry COC(=O)Cn1c2c(c3c(O)cccc31)C(=O)c1ccccc1-2 is > 100 µM

Summary line: O=c1ccc2cc(O)c(O)cc2o1 , SK-MEL-5 melanoma, reported TGI = > 100 µM

The recorded TGI with SK-MEL-5 melanoma for N=C(N)c1ccc(N2CCCN(c3ccc(C(=N)N)cc3)CC2)cc1 was > 100 µM

Summary line: Cn1cnc2nc(Cl)nc(NC(C)(C)C(C)(C)O)c21 , SK-MEL-5 melanoma, reported TGI = > 100 µM

Let me check: COc1ccccc1NC(=O)/C(Cc1nc2ccc([N+](=O)[O-])cc2[nH]c1=O)=N\NC(=O)C[N+](C)(C)C , system SK-MEL-5 melanoma, measured TGI is > 100 µM
